protocol-description: Solid-state stress stability test (humidity 90 % RH)
condition-label: Table 9, initial
Counter-ions that a name gives are not always drawn.
endpoint: Initial (%) Degradant
I only need the number, in %, no unit after it.

Value lookup for Initial (%) Degradant; key = Cc1nc2c(O[C@H]3CCOc4cc(F)cc(F)c43)cc(C(=O)N(C)C)cc2[nH]1 [Methanesulfonate Salt (Amorphous Form)]
0.284

Value lookup for Initial (%) Degradant; key = Cc1nc2c(O[C@H]3CCOc4cc(F)cc(F)c43)cc(C(=O)N(C)C)cc2[nH]1 [Hydrobromide Salt]
1.972

Value lookup for Initial (%) Degradant; key = Cc1nc2c(O[C@H]3CCOc4cc(F)cc(F)c43)cc(C(=O)N(C)C)cc2[nH]1 [Sulfate Salt]
0.339

Value lookup for Initial (%) Degradant; key = Cc1nc2c(O[C@H]3CCOc4cc(F)cc(F)c43)cc(C(=O)N(C)C)cc2[nH]1 [Malate Salt]
0.004

Value lookup for Initial (%) Degradant; key = Cc1nc2c(O[C@H]3CCOc4cc(F)cc(F)c43)cc(C(=O)N(C)C)cc2[nH]1 [Phosphate Salt]
0.085

Value lookup for Initial (%) Degradant; key = Cc1nc2c(O[C@H]3CCOc4cc(F)cc(F)c43)cc(C(=O)N(C)C)cc2[nH]1 [Maleate Salt]
0.027

Value lookup for Initial (%) Degradant; key = Cc1nc2c(O[C@H]3CCOc4cc(F)cc(F)c43)cc(C(=O)N(C)C)cc2[nH]1 [Methanesulfonate Salt (Crystalline Form)]
0.122

Value lookup for Initial (%) Degradant; key = Cc1nc2c(O[C@H]3CCOc4cc(F)cc(F)c43)cc(C(=O)N(C)C)cc2[nH]1 [Pidolate Salt]
0.001

Value lookup for Initial (%) Degradant; key = Cc1nc2c(O[C@H]3CCOc4cc(F)cc(F)c43)cc(C(=O)N(C)C)cc2[nH]1 [Hemisalicylate Salt]
0.001

* * *

protocol-description: Photostability test, visible light (1.2 Mlux·hr) exposure
condition-label: Table 12 summary
Counter-ions that a name gives are not always drawn.
I'd be grateful if you could share measured Change in Quality (%) Light (Visible) Degradant for these entries.
I only need the number, in %, no unit after it.

Value lookup for Change in Quality (%) Light (Visible) Degradant; key = Cc1nc2c(O[C@H]3CCOc4cc(F)cc(F)c43)cc(C(=O)N(C)C)cc2[nH]1 [Pidolate Salt]
0.067

Value lookup for Change in Quality (%) Light (Visible) Degradant; key = Cc1nc2c(O[C@H]3CCOc4cc(F)cc(F)c43)cc(C(=O)N(C)C)cc2[nH]1 [Methanesulfonate Salt (Amorphous Form)]
0.154

Value lookup for Change in Quality (%) Light (Visible) Degradant; key = Cc1nc2c(O[C@H]3CCOc4cc(F)cc(F)c43)cc(C(=O)N(C)C)cc2[nH]1 [Malate Salt]
0.031

Value lookup for Change in Quality (%) Light (Visible) Degradant; key = Cc1nc2c(O[C@H]3CCOc4cc(F)cc(F)c43)cc(C(=O)N(C)C)cc2[nH]1 [Methanesulfonate Salt (Crystalline Form)]
0.086

* * *

protocol-description: Photostability test, visible light (1.2 Mlux·hr) exposure
condition-label: Table 11, after exposure vs initial
Counter-ions that a name gives are not always drawn.
endpoint: Change (%) Degradant

Value lookup for Change (%) Degradant; key = Cc1nc2c(O[C@H]3CCOc4cc(F)cc(F)c43)cc(C(=O)N(C)C)cc2[nH]1 [Maleate Salt]
0.006%

Value lookup for Change (%) Degradant; key = Cc1nc2c(O[C@H]3CCOc4cc(F)cc(F)c43)cc(C(=O)N(C)C)cc2[nH]1 [Malate Salt]
0.031%

Value lookup for Change (%) Degradant; key = Cc1nc2c(O[C@H]3CCOc4cc(F)cc(F)c43)cc(C(=O)N(C)C)cc2[nH]1 [Pidolate Salt]
0.067%

Value lookup for Change (%) Degradant; key = Cc1nc2c(O[C@H]3CCOc4cc(F)cc(F)c43)cc(C(=O)N(C)C)cc2[nH]1 [Methanesulfonate Salt (Amorphous Form)]
0.154%

Value lookup for Change (%) Degradant; key = Cc1nc2c(O[C@H]3CCOc4cc(F)cc(F)c43)cc(C(=O)N(C)C)cc2[nH]1 [Methanesulfonate Salt (Crystalline Form)]
0.086%

Value lookup for Change (%) Degradant; key = Cc1nc2c(O[C@H]3CCOc4cc(F)cc(F)c43)cc(C(=O)N(C)C)cc2[nH]1 [Phosphate Salt]
0.055%

Value lookup for Change (%) Degradant; key = Cc1nc2c(O[C@H]3CCOc4cc(F)cc(F)c43)cc(C(=O)N(C)C)cc2[nH]1 [Sulfate Salt]
1.934%

Value lookup for Change (%) Degradant; key = Cc1nc2c(O[C@H]3CCOc4cc(F)cc(F)c43)cc(C(=O)N(C)C)cc2[nH]1 [Hemisalicylate Salt]
0.244%
